Data credit: the supplement of paper PMC12494721

tested on: Klebsiella aerogenes DSM 30053; test: fold change of Histamine concentration vs plate DMSO controls (fold change (ratio)); higher = more amine produced, active = hit call of the paper (significant change in both replicates, either direction); details: incubation time: 27 h, anaerobic, 37 °C
Counter-ions that a name gives are not always drawn.
parameter-measured: fold change of Histamine concentration
Answer with a number only.

The following molecules have reported results that may help.
Cc1scc2c1N(C(=O)CN1CCN(C)CC1)c1ccccc1NC2=O [Telenzepine dihydrochloride] (20 µM) | 0.927
O=C(O)CCC(=O)c1ccc(-c2ccccc2)cc1 [Fenbufen] (20 µM) | 0.97
Cc1onc(-c2ccccc2Cl)c1C(=O)N[C@@H]1C(=O)N2[C@@H]1SC(C)(C)[C@@H]2C(=O)O [Cloxacillin sodium salt] (20 µM) | 0.987

# ---- query molecule ----
# input Query for Klebsiella aerogenes DSM 30053: what fold change of Histamine concentration does the record show for CN1CCN(CC(=O)N2c3ccccc3C(=O)Nc3cccnc32)CC1 [Pirenzepine dihydrochloride] (20 µM) ?
# output 1.1

###

test system: Klebsiella aerogenes DSM 30053; assay: growth (OD595) fold change vs plate DMSO controls (fold change (ratio)); higher = more growth; conditions: incubation time: 27 h, anaerobic, 37 °C
parameter-measured: growth
Answer with a number only.

Nc1cc(C(Cl)=C(Cl)Cl)c(S(N)(=O)=O)cc1S(N)(=O)=O [Clorsulon] (20 µM) | 0.957

# input Name the recorded growth for O=c1[nH]cnc2c1ncn2[C@H]1CC[C@@H](CO)O1 [Didanosine] (20 µM) .
# output 1.03

# input Name the recorded growth for CCOC(=O)N1CCC(=C2c3ccc(Cl)cc3CCc3cccnc32)CC1 [Loratadine] (20 µM) .
# output 1.04

# input Name the recorded growth for COc1ccc2[nH]c([S+]([O-])Cc3ncc(C)c(OC)c3C)nc2c1 (stereo not given) [Omeprazole] (20 µM) .
# output 1.01

# input Name the recorded growth for CC(C)Cc1ccc(CC(=O)O)cc1 [Ibufenac] (20 µM) .
# output 1.06

###

system: Klebsiella aerogenes DSM 30053; test: fold change of Putrescine concentration vs plate DMSO controls (fold change (ratio)); higher = more amine produced, active = hit call of the paper (significant change in both replicates, either direction); conditions: incubation time: 27 h, anaerobic, 37 °C
Structures can show the parent of a compound that is named as a salt.
We use 1 as the dividing line for fold change of Putrescine concentration: on or above the line is MET, below is NOT MET.

Past entries and their recorded results:
C=CCOC(Cn1ccnc1)c1ccc(Cl)cc1Cl (stereo unspecified) (20 µM) | NOT MET
Nc1ccc(S(=O)(=O)Nc2ccnn2-c2ccccc2)cc1 [Sulfaphenazole] (20 µM) | MET
CO/N=C1\CN(c2nc3c(cc2F)c(=O)c(C(=O)O)cn3C2CC2)CC1CN (stereo unspecified) [Gemifloxacin mesylate] (20 µM) | NOT MET
COc1ccc(CC(C)NCC(O)c2ccc(O)c(NC=O)c2)cc1 (stereo unspecified) [Formoterol fumarate] (20 µM) | NOT MET

# input Exam item: decide whether the reported fold change of Putrescine concentration for N[C@@H](C(=O)N[C@@H]1C(=O)N2C(C(=O)O)=C(Cl)CC[C@H]12)c1ccccc1 [Loracarbef] (20 µM) is at least 1.
# output MET

# input Exam item: decide whether the reported fold change of Putrescine concentration for CC(C)C[C@H](NC(=O)[C@@H](O)[C@H](N)Cc1ccccc1)C(=O)O [Ubenimex] (20 µM) is at least 1.
# output NOT MET
